- Tested on: Jurkat
- PROTOCOL SUMMARY: Growth inhibition of human Jurkat cells after 72 hrs by MTT assay
- Type: functional
GI50 overview
Reply with just the number (in µM).

A selection of reference data follows.
{"COMPOUND": "COC(=O)c1nc(C2CC2)n(-c2ccc(F)cc2)n1", "TARGET OF ASSAY": "Jurkat", "OBSERVED RESULT": 9.42}
{"COMPOUND": "COC(=O)c1nc(-c2ccoc2)n(-c2ccc(C(F)(F)F)cc2)n1", "TARGET OF ASSAY": "Jurkat", "OBSERVED RESULT": 97.2}
{"COMPOUND": "CCc1nc(C(=O)OC)nn1-c1ccc(F)cc1", "TARGET OF ASSAY": "Jurkat", "OBSERVED RESULT": 11}
{"COMPOUND": "CN(Cc1cnc2nc(N)nc(N)c2n1)c1ccc(C(=O)N[C@@H](CCC(=O)O)C(=O)O)cc1 [METHOTREXATE]", "TARGET OF ASSAY": "Jurkat", "OBSERVED RESULT": 1.25}
{"COMPOUND": "COC(=O)c1nc(-c2ccoc2)n(-c2ccc(F)cc2)n1", "TARGET OF ASSAY": "Jurkat", "OBSERVED RESULT": 9.32}
{"COMPOUND": "COC(=O)c1nc(C)n(-c2cccc(C(F)(F)F)c2)n1", "TARGET OF ASSAY": "Jurkat", "OBSERVED RESULT": 10.6}

Looking up `COC(=O)c1nc(C)n(-c2ccc(Cl)cc2)n1` , I see its GI50 listed as 65.9

====

- Test system: Jurkat
- PROTOCOL SUMMARY: Growth inhibition of human Jurkat cells after 72 hrs by MTT assay
- Format: functional
GI50 reference
Express it in µM; write the number only.

Example results:
{"RECORD SMILES": "COC(=O)c1nc(C)n(-c2ccc(C(F)(F)F)cc2)n1", "TARGET OF ASSAY": "Jurkat", "MEASUREMENT KIND": "GI50", "UNITS TEXT": "µM", "OBSERVED RESULT": 9.1}
{"RECORD SMILES": "COC(=O)c1nc(-c2ccsc2)n(-c2ccc(F)cc2)n1", "TARGET OF ASSAY": "Jurkat", "MEASUREMENT KIND": "GI50", "UNITS TEXT": "µM", "OBSERVED RESULT": 54}
{"RECORD SMILES": "COC(=O)c1nc(-c2ccc3ccccc3c2)n(-c2ccc(F)cc2)n1", "TARGET OF ASSAY": "Jurkat", "MEASUREMENT KIND": "GI50", "UNITS TEXT": "µM", "OBSERVED RESULT": 18.5}

Briefly, GI50 measured for `COC(=O)c1nc(C)n(-c2ccc(F)cc2)n1` : 8.7

Looking up `COC(=O)c1nc(-c2ccc[nH]2)n(-c2ccc(F)cc2)n1` , I see its GI50 listed as 9.01

GI50 reading for `COC(=O)c1nc(-c2ccccc2)n(-c2ccc(F)cc2)n1` : 10

Reported GI50 ( `COC(=O)c1nc(C2CCCC2)n(-c2ccc(F)cc2)n1` ) = 9.55

====

- System: Jurkat
- PROTOCOL SUMMARY: Growth inhibition of human Jurkat cells after 72 hrs by MTT assay
- Format: functional
MEASUREMENT KIND: GI50

{"RECORD SMILES": "CCOC(=O)c1nc(-c2ccc[nH]2)n(-c2ccc(F)cc2)n1", "GI50": "> 100 µM"}

Entry `COC(=O)c1nc(-c2ccc[nH]2)n(-c2ccc(C(F)(F)F)cc2)n1` — recorded GI50 = > 100 µM

Form field GI50, entry `CCOC(=O)c1nc(-c2ccc[nH]2)n(-c2ccc(C(F)(F)F)cc2)n1` : > 100 µM

In plain terms, `COC(=O)c1nc(C2CCCCC2)n(-c2ccc(F)cc2)n1` has a documented GI50 of > 100 µM
